Data origin: ChEMBL document CHEMBL1649354

Tested on: Oocyte
Experiment: Allosteric modulation of alpha1beta2gamma2S GABAA receptor expressed in Xenopus laevis oocytes assessed as stimulation of GABA-induced chloride current at 300 uM by electrophysiology
Type: cell-based
Assignment: determine reported Activity for the given compounds.
API: value field is a number in %; no unit string.

Request body: readout Activity, system Oocyte, query C[C@@H]1C[C@@H]2O[C@@]3(O[C@@H]2C(C)(C)O)[C@H](O)[C@@]2(C)[C@@H]4CC[C@H]5C(C)(C)[C@@H](O[C@@H]6OC[C@@H](O)[C@H](O)[C@H]6O)CC[C@@]56C[C@@]46CC[C@]2(C)[C@@H]13 . Return the value.
256

Same read-out for CC(=O)OC(C)(C)[C@H]1O[C@@]23O[C@H]1C[C@@H](C)[C@@H]2[C@@]1(C)CC[C@@]24C[C@@]25CC[C@H](O[C@@H]2OC[C@H](O)[C@H](O)[C@H]2O)C(C)(C)[C@@H]5CC[C@H]4[C@]1(C)[C@H]3O ?
289

Same read-out for CC(=O)O[C@H](C[C@@H](C)[C@H]1C(=O)[C@H](O)[C@@]2(C)[C@@H]3CC[C@H]4C(C)(C)[C@@H](O[C@@H]5OC[C@@H](O)[C@H](O)[C@H]5O)CC[C@@]45C[C@@]35CC[C@]12C)[C@H]1OC1(C)C ?
1950

Same read-out for CC(=O)O[C@@H]1C[C@@]23C[C@@]24CC[C@H](O[C@@H]2OC[C@@H](O)[C@H](O)[C@H]2O)C(C)(C)[C@@H]4CC[C@H]3[C@]2(C)C[C@@H]3O[C@]4(C[C@@H](C)[C@@H]3[C@@]12C)O[C@H](O)[C@@]1(C)O[C@@H]41 [ACTEIN] ?
378

---

System: Oocyte
Assay: Allosteric modulation of alpha1beta2gamma2S GABAA receptor expressed in Xenopus laevis oocytes assessed as stimulation of GABA-induced chloride current at 100 uM by electrophysiology
Assay type: cell-based
property: Activity (%)
API: value field is a number in %; no unit string.

Request body: readout Activity, system Oocyte, query CC(=O)O[C@@H]1C[C@@]23C[C@@]24CC[C@H](O)C(C)(C)[C@@H]4CC[C@H]3[C@]2(C)C[C@@H]3O[C@]4(C[C@@H](C)[C@@H]3[C@@]12C)O[C@H](O)[C@@]1(C)O[C@H]41 . Return the value.
126

Same read-out for C[C@@H]1C[C@@H]2O[C@@]3(O[C@@H]2C(C)(C)O)[C@H](O)[C@@]2(C)[C@@H]4CC[C@H]5C(C)(C)[C@@H](O)CC[C@@]56C[C@@]46CC[C@]2(C)[C@@H]13 ?
104

Same read-out for CC(=O)O[C@H](C[C@@H](C)[C@H]1C(=O)[C@H](O)[C@@]2(C)[C@@H]3CC[C@H]4C(C)(C)[C@@H](O[C@@H]5OC[C@@H](O)[C@H](O)[C@H]5O)CC[C@@]45C[C@@]35CC[C@]12C)[C@H]1OC1(C)C ?
1690

Same read-out for CC(=O)O[C@H](C[C@@H](C)[C@H]1C(=O)[C@H](O)[C@@]2(C)[C@@H]3CC[C@H]4C(C)(C)[C@@H](O)CC[C@@]45C[C@@]35CC[C@]12C)[C@H]1OC1(C)C ?
64

Same read-out for CC(=O)OC(C)(C)[C@H]1O[C@@]23O[C@H]1C[C@@H](C)[C@@H]2[C@@]1(C)CC[C@@]24C[C@@]25CC[C@H](O[C@@H]2OC[C@H](O)[C@H](O)[C@H]2O)C(C)(C)[C@@H]5CC[C@H]4[C@]1(C)[C@H]3O ?
271

Same read-out for C[C@@H]1C[C@@H]2O[C@@]3(O[C@@H]2C(C)(C)O)[C@H](O)[C@@]2(C)[C@@H]4CC[C@H]5C(C)(C)[C@@H](O[C@@H]6OC[C@@H](O)[C@H](O)[C@H]6O)CC[C@@]56C[C@@]46CC[C@]2(C)[C@@H]13 ?
189

Same read-out for CC(=O)O[C@@H]1C[C@@]23C[C@@]24CC[C@H](O[C@@H]2OC[C@@H](O)[C@H](O)[C@H]2O)C(C)(C)[C@@H]4CC[C@H]3[C@]2(C)C[C@@H]3O[C@]4(C[C@@H](C)[C@@H]3[C@@]12C)O[C@H](O)[C@@]1(C)O[C@@H]41 ?
305
